Listing of recorded MIC by entry.
test system: Methicillin Resistant Staphylococcus aureus strain USA 300, NRS384; experiment: Minimum inhibitory concentration, broth micro-dilution (CLSI), S. aureus; type: cell-based; conditions: Staphylococcus aureus, MRSA / NRS 384 / USA300, 22 h, MRSA USA 300 NRS384; 35° C., 22 hours; read-out: MIC (μg/mL) S. aureus

# ENTRY_SMILES, MIC
measured = [
    ("CCCCCCc1ccc(C(=O)N[C@@H](Cc2ccncc2)C(=O)N(C)[C@@H]2C(=O)N[C@@H](C)C(=O)N[C@H](C(=O)NCC#N)Cc3ccc(OCCN)c(c3)-c3cc2ccc3OCCN)c(C)c1", "0.25 µg/mL"),
    ("Cc1cc(-c2ccc(CC(C)C)cc2)ccc1C(=O)N[C@@H](CCC(N)=O)C(=O)N(C)[C@@H]1C(=O)N[C@@H](C)C(=O)N[C@H](C(=O)NCC#N)Cc2ccc(OCCN)c(c2)-c2cc1ccc2OCCN", "0.19 µg/mL"),
    ("CCCCCCCCc1cnc(C(=O)N[C@@H](CCN)C(=O)N(C)[C@@H]2C(=O)N[C@@H](C)C(=O)N[C@H](C(=O)NCC#N)Cc3ccc(OCCN)c(c3)-c3cc2ccc3OCCN)c(C)c1", "0.063 µg/mL"),
]

---

Listing of recorded MIC by entry.
test system: Methicillin Resistant Staphylococcus aureus strain USA 300, NRS384; experiment: Minimum inhibitory concentration, broth micro-dilution (CLSI), S. aureus; type: cell-based; conditions: Staphylococcus aureus, MRSA / NRS 384 / USA300, 22 h, MRSA USA 300 NRS384; 35° C., 22 hours; read-out: MIC (μg/mL) S. aureus
MEASURE_NAME: MIC (µg/mL)

# ENTRY_SMILES, MEASURE_NAME, QUANTITATIVE_RESULT
data = [
    ("CCCCOc1ccc(C(=O)N[C@@H](CCN)C(=O)N(C)[C@@H]2C(=O)N[C@@H](C)C(=O)N[C@H](C(=O)NCC#N)Cc3ccc(OCCN)c(c3)-c3cc2ccc3OCCN)c(Cl)c1", "MIC", 0.25),
    ("CCCCCCCOc1ccc(C(=O)N[C@@H](CCN)C(=O)N(C)[C@@H]2C(=O)N[C@@H](C)C(=O)N[C@H](C(=O)NCC#N)Cc3ccc(OCCN)c(c3)-c3cc2ccc3OCCN)c2ccccc12", "MIC", 0.031),
    ("CCCCCc1ccc(-c2ncc(C(=O)N[C@@H](CCN)C(=O)N(C)[C@@H]3C(=O)N[C@@H](C)C(=O)N[C@H](C(=O)NCC#N)Cc4ccc(OCCN)c(c4)-c4cc3ccc4OCCN)c(C)n2)cc1", "MIC", 0.023),
    ("CCCCCCCCCC(=O)N[C@@H](CCN)C(=O)N(C)[C@@H]1C(=O)N[C@@H](C)C(=O)N[C@H](C(=O)NCC#N)Cc2ccc(OCCN)c(c2)-c2cc1ccc2OCCN", "MIC", 0.13),
    ("CCCCCCCCCC(=O)NCCC(=O)NCCC(=O)N[C@@H](CCN)C(=O)N(C)[C@@H]1C(=O)N[C@@H](C)C(=O)N[C@H](C(=O)NCC#N)Cc2ccc(OCCN)c(c2)-c2cc1ccc2OCCN", "MIC", 0.5),
    ("CCCCc1ccc(C(=O)N[C@@H](CCN)CC(=O)N(C)[C@@H]2C(=O)N[C@@H](C)C(=O)N[C@H](C(=O)NCC#N)Cc3ccc(OCCN)c(c3)-c3cc2ccc3OCCN)c(C)c1", "MIC", 1.5),
    ("CCCCc1cc(C)c(C(=O)N[C@@H](CCCN)C(=O)N(C)[C@@H]2C(=O)N[C@@H](C)C(=O)N[C@H](C(=O)NCC#N)Cc3ccc(OCCN)c(c3)-c3cc2ccc3OCCN)c(C)c1", "MIC", 0.38),
    ("CCCCCCCCCCCC(=O)N[C@@H](CCn1cncn1)C(=O)N(C)[C@@H]1C(=O)N[C@@H](C)C(=O)N[C@H](C(=O)NCC#N)Cc2ccc(OCCN)c(c2)-c2cc1ccc2OCCN", "MIC", 0.13),
    ("CC(C)Cc1cnc(-c2ccc(C(=O)N[C@@H](CCN)C(=O)N(C)[C@@H]3C(=O)N[C@@H](C)C(=O)N[C@H](C(=O)NCC#N)Cc4ccc(OCCN)c(c4)-c4cc3ccc4OCCN)c3ccccc23)nc1", "MIC", 0.5),
    ("CCCC(C)(C)COc1ccc(C(=O)N[C@@H](CCN)C(=O)N(C)[C@@H]2C(=O)N[C@@H](C)C(=O)N[C@H](C(=O)NCC#N)Cc3ccc(OCCN)c(c3)-c3cc2ccc3OCCN)c(C)c1", "MIC", 0.063),
    ("Cc1cc(C2(C)CC2)ccc1C(=O)N[C@@H](CCN)C(=O)N(C)[C@@H]1C(=O)N[C@@H](C)C(=O)N[C@H](C(=O)NCC#N)Cc2ccc(OCCN)c(c2)-c2cc1ccc2OCCN", "MIC", 0.5),
    ("C[C@@H]1NC(=O)[C@@H](N(C)C(=O)[C@H](CCN)NC(=O)c2ccc3ccccc3c2)c2ccc(OCCN)c(c2)-c2cc(ccc2OCCN)C[C@@H](C(=O)NCC#N)NC1=O", "MIC", 2),
    ("CCCCCCc1ccc(C(=O)N[C@@H]2CN[C@H](C(=O)N(C)[C@@H]3C(=O)N[C@@H](C)C(=O)N[C@H](C(=O)NCC#N)Cc4ccc(OCCN)c(c4)-c4cc3ccc4OCCN)C2)c(C)c1", "MIC", 0.5),
    ("CCCCc1ccc(C#CC(=O)N[C@@H](CCN)C(=O)N(C)[C@@H]2C(=O)N[C@@H](C)C(=O)N[C@H](C(=O)NCC#N)Cc3ccc(OCCN)c(c3)-c3cc2ccc3OCCN)cc1", "MIC", 0.13),
    ("CCCCCCCCc1nc(C)c(C(=O)N[C@@H](CCN)C(=O)N(C)[C@@H]2C(=O)N[C@@H](C)C(=O)N[C@H](C(=O)NCC#N)Cc3ccc(OCCN)c(c3)-c3cc2ccc3OCCN)s1", "MIC", 0.047),
    ("CCCCCCc1ccc(C(=O)N[C@@H](CC(N)=O)C(=O)N(C)[C@@H]2C(=O)N[C@@H](C)C(=O)N[C@H](C(=O)NCC#N)Cc3ccc(OCCN)c(c3)-c3cc2ccc3OCCN)c(C)c1", "MIC", 0.13),
    ("CCCCCCCc1ccc(C(=O)N[C@@H](CCN)C(=O)N(C)[C@@H]2C(=O)N[C@@H](C)C(=O)N[C@H](C(=O)NCC#N)Cc3ccc(OCCNC(=O)CN)c(c3)-c3cc2ccc3OCCNC(=O)CN)c(C)c1", "MIC", 0.063),
    ("CCCCCCCOc1ccc(C(=O)N[C@@H](CCN)C(=O)N(C)[C@@H]2C(=O)N[C@@H](C)C(=O)N[C@H](C(=O)NCC#N)Cc3ccc(OCCN)c(c3)-c3cc2ccc3OCCN)c(C)c1", "MIC", 0.035),
    ("CCCCCCCCCC(=O)N[C@@H](CC(N)=O)C(=O)N(C)[C@@H]1C(=O)N[C@@H](C)C(=O)N[C@H](C(=O)NCC#N)Cc2ccc(OCCN)c(c2)-c2cc1ccc2OCCN", "MIC", 1),
]
